// data source = the supplement of paper PMC10126150

System: ATP;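 note: ATP exposure 15 min at 22 °C before imaging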
Assay: switch fluorescence ratio, 500 uM ATP over buffer (Cy3 cluster intensity, sum of 5 cycles each) (fold (ratio)); higher = stronger signal-on switching upon ATP binding; sequences stand for … in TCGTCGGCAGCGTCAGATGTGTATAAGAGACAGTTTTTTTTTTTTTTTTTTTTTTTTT…TC
Conditions: aptamer strand: ATP DNA aptamer (quencher-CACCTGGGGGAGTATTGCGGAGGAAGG + anchor), 100 nM annealed; ATP concentration: 500 uM
switch fluorescence ratio by entry:
// print number alone

Solved cases below.
| residues | switch fluorescence ratio |
| --- | --- |
| AATTGGACTA | 0.976 |
| CTCTTCTGGT | 0.971 |

Ask: // lookup switch fluorescence ratio for ACGGGGGTAA
Reply: 1.18

Ask: // lookup switch fluorescence ratio for TGGATCGTAG
Reply: 0.978

###

Tested on: ATP;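 note: ATP exposure 15 min at 22 °C before imaging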
Test: switch fluorescence ratio, 500 uM ATP over buffer (Cy3 cluster intensity, sum of 5 cycles each) (fold (ratio)); higher = stronger signal-on switching upon ATP binding; sequences stand for … in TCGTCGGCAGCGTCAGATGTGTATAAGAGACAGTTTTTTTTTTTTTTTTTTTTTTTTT…TC
Details: aptamer strand: ATP DNA aptamer (quencher-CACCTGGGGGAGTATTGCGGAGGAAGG + anchor), 100 nM annealed; ATP concentration: 500 uM
propertyMeasured: switch fluorescence ratio
// print number alone

Ask: Record GTTTTCGCGA : what is its switch fluorescence ratio with ATP?
Reply: 1.06

###

Tested on: ATP;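 note: ATP exposure 15 min at 22 °C before imaging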
Assay: switch fluorescence ratio, 500 uM ATP over buffer (Cy3 cluster intensity, sum of 5 cycles each) (fold (ratio)); higher = stronger signal-on switching upon ATP binding; sequences stand for … in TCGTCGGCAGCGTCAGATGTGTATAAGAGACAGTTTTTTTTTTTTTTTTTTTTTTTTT…TC
Details: aptamer strand: ATP DNA aptamer (quencher-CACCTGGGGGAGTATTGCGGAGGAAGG + anchor), 100 nM annealed; ATP concentration: 500 uM
propertyMeasured: switch fluorescence ratio
// print number alone

Solved cases below.
| residues | testedOn | resultValue |
| --- | --- | --- |
| TCGTTGGCTT | ATP | 1 |
| TCATGGTTGG | ATP | 0.997 |
| GTGGGATGTT | ATP | 1.01 |

Ask: // lookup switch fluorescence ratio for GAGCAAGAGT
Reply: 1.8

Ask: // lookup switch fluorescence ratio for TGATTCTTAG
Reply: 0.989

Ask: // lookup switch fluorescence ratio for AGGCCTTCGA
Reply: 1

###

System: ATP;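 note: ATP exposure 15 min at 22 °C before imaging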
Assay: switch fluorescence ratio, 500 uM ATP over buffer (Cy3 cluster intensity, sum of 5 cycles each) (fold (ratio)); higher = stronger signal-on switching upon ATP binding; sequences stand for … in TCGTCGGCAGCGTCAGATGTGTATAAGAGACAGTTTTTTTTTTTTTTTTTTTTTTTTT…TC
Settings: aptamer strand: ATP DNA aptamer (quencher-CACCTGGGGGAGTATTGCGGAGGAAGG + anchor), 100 nM annealed; ATP concentration: 500 uM
switch fluorescence ratio by entry:

| residues | testedOn | switch fluorescence ratio |
| --- | --- | --- |
| TCGGGGGCCT | ATP | 0.959 |

Ask: // lookup switch fluorescence ratio for ATTCACATCG
Reply: 1.01

Ask: // lookup switch fluorescence ratio for GGCTGAGGGA
Reply: 1.04

Ask: // lookup switch fluorescence ratio for GTTGCAGCTG
Reply: 0.962

Ask: // lookup switch fluorescence ratio for GGTTCGGCGG
Reply: 1.01

Ask: // lookup switch fluorescence ratio for AATAATTTAA
Reply: 0.995

###

Test system: ATP;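 note: ATP exposure 15 min at 22 °C before imaging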
Assay: switch fluorescence ratio, 500 uM ATP over buffer (Cy3 cluster intensity, sum of 5 cycles each) (fold (ratio)); higher = stronger signal-on switching upon ATP binding; sequences stand for … in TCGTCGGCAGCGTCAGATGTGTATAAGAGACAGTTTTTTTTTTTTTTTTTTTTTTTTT…TC
Conditions: aptamer strand: ATP DNA aptamer (quencher-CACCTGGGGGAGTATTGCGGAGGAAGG + anchor), 100 nM annealed; ATP concentration: 500 uM
switch fluorescence ratio by entry:

Ask: Record AAAGGGTTGA : what is its switch fluorescence ratio with ATP?
Reply: 0.956

Ask: Record CTAGCGAGGG : what is its switch fluorescence ratio with ATP?
Reply: 1.01

Ask: Record TAGTTCAGGA : what is its switch fluorescence ratio with ATP?
Reply: 1.05

Ask: Record ATGGGTTCGC : what is its switch fluorescence ratio with ATP?
Reply: 0.976

Ask: Record TAGTGGGGCA : what is its switch fluorescence ratio with ATP?
Reply: 0.966

Ask: Record ACAGTTGGGC : what is its switch fluorescence ratio with ATP?
Reply: 0.995

Ask: Record TCATTTATCA : what is its switch fluorescence ratio with ATP?
Reply: 1

Ask: Record ATGGTGGAGG : what is its switch fluorescence ratio with ATP?
Reply: 1.01

Ask: Record TCAGGTCGCA : what is its switch fluorescence ratio with ATP?
Reply: 0.989

Ask: Record TCTTTACTAC : what is its switch fluorescence ratio with ATP?
Reply: 1.08

###

switch fluorescence ratio by entry:
Tested on: ATP;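 note: ATP exposure 15 min at 22 °C before imaging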
Experiment: switch fluorescence ratio, 500 uM ATP over buffer (Cy3 cluster intensity, sum of 5 cycles each) (fold (ratio)); higher = stronger signal-on switching upon ATP binding; sequences stand for … in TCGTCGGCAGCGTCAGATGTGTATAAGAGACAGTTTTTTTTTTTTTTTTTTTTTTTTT…TC
Settings: aptamer strand: ATP DNA aptamer (quencher-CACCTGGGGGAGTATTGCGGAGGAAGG + anchor), 100 nM annealed; ATP concentration: 500 uM
// print number alone

Solved cases below.
| residues | propertyMeasured | resultValue |
| --- | --- | --- |
| GGCTGGGGGG | switch fluorescence ratio | 0.997 |
| AGTGTGGTTA | switch fluorescence ratio | 1.01 |
| AGCGGTTATT | switch fluorescence ratio | 1 |
| ACACGGGGGG | switch fluorescence ratio | 1.04 |
| ATGTCAGGGG | switch fluorescence ratio | 1.14 |
| CGGTTTTTTA | switch fluorescence ratio | 0.964 |
| ACTTGTAGAT | switch fluorescence ratio | 1.01 |
| GGGGTCTTTT | switch fluorescence ratio | 0.999 |

Ask: Record TAAAGGCTAC : what is its switch fluorescence ratio with ATP?
Reply: 1.17

Ask: Record CAATGGAGGC : what is its switch fluorescence ratio with ATP?
Reply: 0.976

###

Test system: ATP;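 note: ATP exposure 15 min at 22 °C before imaging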
Test: switch fluorescence ratio, 500 uM ATP over buffer (Cy3 cluster intensity, sum of 5 cycles each) (fold (ratio)); higher = stronger signal-on switching upon ATP binding; sequences stand for … in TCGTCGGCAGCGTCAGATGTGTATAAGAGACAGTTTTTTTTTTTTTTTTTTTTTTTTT…TC
Settings: aptamer strand: ATP DNA aptamer (quencher-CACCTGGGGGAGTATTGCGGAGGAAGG + anchor), 100 nM annealed; ATP concentration: 500 uM
switch fluorescence ratio by entry:
// print number alone

| residues | switch fluorescence ratio |
| --- | --- |
| CTGCGGGCCG | 1 |
| ACGGTATAGT | 1.1 |

Ask: // lookup switch fluorescence ratio for ATTGGGGTGG
Reply: 0.935

Ask: // lookup switch fluorescence ratio for CACGGGGGAA
Reply: 1.03

Ask: // lookup switch fluorescence ratio for ACGGGGCATC
Reply: 1.07

###

Test system: ATP;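 note: ATP exposure 15 min at 22 °C before imaging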
Assay: switch fluorescence ratio, 500 uM ATP over buffer (Cy3 cluster intensity, sum of 5 cycles each) (fold (ratio)); higher = stronger signal-on switching upon ATP binding; sequences stand for … in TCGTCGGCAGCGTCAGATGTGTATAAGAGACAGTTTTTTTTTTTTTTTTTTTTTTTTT…TC
Settings: aptamer strand: ATP DNA aptamer (quencher-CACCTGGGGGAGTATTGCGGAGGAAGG + anchor), 100 nM annealed; ATP concentration: 500 uM
propertyMeasured: switch fluorescence ratio

Solved cases below.
| residues | testedOn | switch fluorescence ratio |
| --- | --- | --- |
| CAGGGGGTTT | ATP | 1.01 |
| CGTTTTTTCG | ATP | 1 |
| AGTAGCGGTC | ATP | 1.02 |
| TTAGTTAGGT | ATP | 1 |
| AGAAAGGAGT | ATP | 0.998 |
| TCGCGAAATG | ATP | 0.968 |
| CAAGAAAAGT | ATP | 0.978 |
| TTCTTGCGCC | ATP | 1.08 |
| GTTAGTGCGA | ATP | 1.01 |
| TGAGGGCCGA | ATP | 1.02 |

Ask: // lookup switch fluorescence ratio for AAGGGGAAGT
Reply: 0.987

###

System: ATP;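 note: ATP exposure 15 min at 22 °C before imaging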
Test: switch fluorescence ratio, 500 uM ATP over buffer (Cy3 cluster intensity, sum of 5 cycles each) (fold (ratio)); higher = stronger signal-on switching upon ATP binding; sequences stand for … in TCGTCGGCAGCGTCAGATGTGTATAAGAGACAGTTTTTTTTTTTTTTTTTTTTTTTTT…TC
Settings: aptamer strand: ATP DNA aptamer (quencher-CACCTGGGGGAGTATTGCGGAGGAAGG + anchor), 100 nM annealed; ATP concentration: 500 uM
propertyMeasured: switch fluorescence ratio
// print number alone

| residues | testedOn | switch fluorescence ratio |
| --- | --- | --- |
| ATTTGAGTTG | ATP | 0.965 |
| TGCATTGCTA | ATP | 1.04 |
| TTAAGTTTTG | ATP | 1.02 |
| ATTACTGTGT | ATP | 0.99 |
| GGGCCAAGTA | ATP | 0.983 |

Ask: // lookup switch fluorescence ratio for AGGGTAGTAG
Reply: 1.01

Ask: // lookup switch fluorescence ratio for ATATCCGCTG
Reply: 1.52

Ask: // lookup switch fluorescence ratio for AGGGGCGCCG
Reply: 1
